# experiment: Brain penetration in rats after continuous intravenous infusion (LC-MS/MS)
# Type: in vivo, Sprague Dawley rats
# conditions: male, Sprague Dawley, rat, brain, iv, 85.5 μg/kg/min, Brain (molar), rat; i.v. infusion 85.5 μg/kg/min; 1 h; heading: Brain
assay_readout: concentration at 1 h (nM)
Could you give me the number in nM? Just the number is fine.

Give concentration at 1 h for COc1ccccc1OCC(O)CN1CCN(CC(=O)Nc2c(C)cccc2C)CC1 (racemic) [Ranolazine]
700

----------
# experimental_target: Nav1.1 R1648H (Homo sapiens, UniProt P35498, R1648H)
# Construct: expressed in transfected cells; host or cells: tsA201 cells (named for WT; same transient transfection method for mutants)
# experiment: Whole-cell voltage-clamp of mutant Nav1.1 R1648H (GEFS+)
# Assay type: cell-based
# conditions: read-out: Tonic Block of Persistent Current IC50
assay_readout: IC50 (µM)
Give the number; µM is assumed, so skip it.

Give recorded IC50. COc1ccccc1OCC(O)CN1CCN(CC(=O)Nc2c(C)cccc2C)CC1 (racemic) [Ranolazine]
30.2

----------
# experiment: Brain penetration in rats after continuous intravenous infusion (LC-MS/MS)
# Assay type: in vivo, Sprague Dawley rats
# conditions: male, Sprague Dawley, rat, brain, iv, 85.5 μg/kg/min, rat; i.v. infusion 85.5 μg/kg/min; 2.5 h; read-out: Brain
assay_readout: concentration at 2.5 h (ng/g)
The response must be a number in ng/g with no trailing unit.

Using the record for COc1ccccc1OCC(O)CN1CCN(CC(=O)Nc2c(C)cccc2C)CC1 (racemic) , state its measured concentration at 2.5 h.
446

----------
# experiment: Brain penetration in rats after continuous intravenous infusion (LC-MS/MS)
# Format: in vivo, Sprague Dawley rats
# conditions: male, Sprague Dawley, brain, iv; rat; i.v. infusion 85.5 μg/kg/min; 1 h; read-out: Brain/Plasma
assay_readout: Kp at 1 h
Write no unit; give the number alone.

For COc1ccccc1OCC(O)CN1CCN(CC(=O)Nc2c(C)cccc2C)CC1 (racemic) [Ranolazine] , write its Kp at 1 h.
0.38

----------
# experiment: Brain penetration in rats after continuous intravenous infusion (LC-MS/MS)
# Format: in vivo, Sprague Dawley rats
# conditions: male, Sprague Dawley, rat, plasma, iv, 85.5 μg/kg/min, rat; i.v. infusion 85.5 μg/kg/min; 2.5 h; read-out: Plasma
assay_readout: concentration at 2.5 h (µg/mL)
Numeric only. Scale: µg/mL

Answer with reported concentration at 2.5 h of COc1ccccc1OCC(O)CN1CCN(CC(=O)Nc2c(C)cccc2C)CC1 (racemic) [Ranolazine]
1.18

----------
# experimental_target: Nav1.1 R1648H (Homo sapiens, UniProt P35498, R1648H)
# Construct: expressed in transfected cells; host or cells: tsA201 cells (named for WT; same transient transfection method for mutants)
# experiment: Whole-cell voltage-clamp of mutant Nav1.1 R1648H (GEFS+)
# Format: cell-based
# conditions: read-out: Tonic Block of Peak Current IC50
assay_readout: pIC50
pIC50 field: float, defined as -log10 of concentration (mol/L).

State its pIC50 for this compound: COc1ccccc1OCC(O)CN1CCN(CC(=O)Nc2c(C)cccc2C)CC1 (racemic)
3.31

----------
# experimental_target: WT-Nav1.1 (Homo sapiens, UniProt P35498)
# Construct: expressed in transfected cells; host or cells: tsA201 cells, transient transfection
# experiment: Whole-cell voltage-clamp of WT-Nav1.1 expressed heterologously in tsA201 cells
# Type: cell-based
# conditions: pulse 300 of 10 Hz train, read-out: Use-Dependent Block of Peak Current IC50
assay_readout: IC50 (µM)
Number in µM, nothing else.

For the molecule COc1ccccc1OCC(O)CN1CCN(CC(=O)Nc2c(C)cccc2C)CC1 (racemic) [Ranolazine] , report IC50.
195
